# test description: mn = molality of the nth substance listed, in mol/kg
# details: 308.15 K; 101 kPa; Liquid; Capillary tube (Ostwald / Ubbelohde) method; m1 = 0.1
± gives the expanded uncertainty stated by the source.
experimental readout: viscosity

Query :: Check the records and state viscosity for OC[C@H]1OC(OC[C@H]2OC(O[C@]3(CO)O[C@H](CO)[C@@H](O)[C@@H]3O)[C@H](O)[C@@H](O)[C@@H]2O)[C@H](O)[C@@H](O)[C@H]1O (stereo partly drawn) [D-(+)-raffinose] + O
Result :: 0.7775 ± 0.01 mPa·s

Query :: Check the records and state viscosity for O=C[C@H](O)[C@H](O)[C@H](O)CO [D-ribose] + O
Result :: 0.7353 ± 0.0073 mPa·s

Query :: Check the records and state viscosity for NCC(=O)O [2-aminoacetic acid] + O
Result :: 0.7236 ± 0.0064 mPa·s

Query :: Check the records and state viscosity for CC(C)C[C@H](N)C(=O)O [L-leucine] + O
Result :: 0.7223 ± 0.0064 mPa·s

FYI, the data here is from the NIST ThermoML archive (doi:10.1021/je500647a).
